# Tested on: HPPD polypeptides
# assay-overview: coupled HPPD activity assay: turnover and residual turnover in crude extracts
# Type: biochemical, Pseudomonas fluorescens
# condition-details: absence of Cmpd. 1; high substrate concentration; kinetic changes in absorbance (OD) at 320 nm, 30 min
# Experimental: The activity of HPPD polypeptides was determined in absence or presence of HPPD inhibitors using the coupled HPPD activity assay (FIG. 1). […] Residual turnover were determined according to Example 3 by measuring total change in signal in the presence and absence of Cmpd. […]
quantity-name: Turnover

• 43 (protein, mutant HPPD polypeptide) MADLYENPMGLMGFEFIEFASPTPGTLEPIFEIMGFTKVATHRSKNVHLYRQGEINLILNNEPNSIASYFAAEHGPSVCGMAFRVKDSQKAYNRALELGAQPIHIDTGPMELNLPAIKGIGGAPLYLIDRFGEGSSIYDIDFVYLEGVERNPVGAGLKVIDHLTHNVYRGRMVYWANFYEKLFNFREARYFDIKGEYTGLTSKAMSAPDGMIRIPLNEESSKGAGQIEEFLMQFNGEGIQHVAFLTDDLVKTWDALKKIGMRFMTAPADEYYEMLEGRLPDHGEPVDQLQARGILLDGSSVEGDKRLLLQIFSETLMGPVFFEFIQRKGDDGFGPHSFKVLFEQVERDQVRRGVLTAD = 0.190
• 23 (protein, mutant HPPD polypeptide) MADLYENPMGLMGFEFIEFASPTPGTLEPIFEIMGFTKVATHRSKNVHLYRQGEINLILNNEPNSIASYFAAEHGPSVCGMAFRVKDSQKAYNRALELGAQPIHIDTGPMELNLPAIKGIGGAPLYLIDRFGEGSSIYDIDFVYLEGVERNPVGAGLKVIDHLTHNVYRGRMVYWANFYEKLFNFREARYFDIKGEYTGLTSKAMSAPDGMIRIPLNEESSKGAGQIEEFLMQFNGEGIQHVAFLTDDLVKTWDALKKIGMRFMTAPPDTYYEMLEGRLPDHGEPVDQLQARGILLDGSSVEGDKRLLLQIFSETLMGPVFFEFIQRKGDDGFGPDSFKVLFEQVERDQVRRGVLTAD = 0.193
• 25 (protein, mutant HPPD polypeptide) MADLYENPMGLMGFEFIEFASPTPGTLEPIFEIMGFTKVATHRSKNVHLYRQGEINLILNNEPNSIASYFAAEHGPSVCGMAFRVKDSQKAYNRALELGAQPIHIDTGPMELNLPAIKGIGGAPLYLIDRFGEGSSIYDIDFVYLEGVERNPVGAGLKVIDHLTHNVYRGRMVYWANFYEKLFNFREARYFDIKGEYTGLTSKAMSAPDGMIRIPLNEESSKGAGQIEEFLMQFNGEGIQHVAFLTDDLVKTWDALKKIGMRFMTAPGDTYYEMLEGRLPDHGEPVDQLQARGILLDGSSVEGDKRLLLQIFSETLMGPVFFEFIQRKGDDGFGPHSFKVLFESIERDQVRRGVLTAD = 0.215
• 12 (protein, mutant HPPD polypeptide) MADLYENPMGLMGFEFIEFASPTPGTLEPIFEIMGFTKVATHRSKNVHLYRQGEINLILNNEPNSIASYFAAEHGPSVCGMAFRVKDSQKAYNRALELGAQPIHIDTGPMELNLPAIKGIGGAPLYLIDRFGEGSSIYDIDFVYLEGVERNPVGAGLKVIDHLTHNVYRGRMVYWANFYEKLFNFREARYFDIKGEYTGLTSKAMSAPDGMIRIPLNEESSKGAGQIEEFLMQFNGEGIQHVAFLTDDLVKTWDALKKIGMRFMTAPADNYYEMLEGRLPDHGEPVDQLQARGILLDGSSVEGDKRLLLQIFSETLMGPVFFEFIQRKGDDGFGPDSFKVLFESVERDQVRRGVLTAD = 0.115
• 66 (protein, mutant HPPD polypeptide) MADLYENPMGLMGFEFIEFASPTPGTLEPIFEIMGFTKVATHRSKNVHLYRQGEINLILNNEPNSIASYFAAEHGPSVCGMAFRVKDSQKAYNRALELGAQPIHIDTGPMELNLPAIKGIGGAPLYLIDRFGEGSSIYDIDFVYLEGVERNPVGAGLKVIDHLTHNVYRGRMVYWANFYEKLFNFREARYFDIKGEYTGLTSKAMSAPDGMIKIPLNEESSKGAGQIEEFLMQFNGEGIQHVAFLTDDLVKTWDALKKIGMRFMTAPADSYYEMLEGRLPDHGEPVDQLQARGILLDGSSVEGDKRLLLQIFSETLMGPVFFEFIQRKGDDGFGPHSFKVLFEQMERDQVRRGVLTAD = 0.336
• 58 (protein, mutant HPPD polypeptide) MADLYENPMGLMGFEFIEFASPTPGTLEPIFEIMGFTKVATHRSKNVHLYRQGEINLILNNEPNSIASYFAAEHGPSVCGMAFRVKDSQKAYNRALELGAQPIHIDTGPMELNLPAIKGIGGAPLYLIDRFGEGSSIYDIDFVYLEGVERNPVGAGLKVIDHLTHNVYRGRMVYWANFYEKLFNFREARYFDIKGEYTGLTSKAMSAPDGMIRIPLNEESSKGAGQIEEFLMQFNGEGIQHVAFLTDDLVKTWDALKKIGMRFMTAPADSYYEMLEGRLPDHGEPVDQLQARGILLDGSSVEGDKRLLLQIFSETLMGPVFFEFIQRKGDDGFGPDSFKVLFESIERDQVRRGVLTAD = 0.144
• 65 (protein, mutant HPPD polypeptide) MADLYENPMGLMGFEFIEFASPTPGTLEPIFEIMGFTKVATHRSKNVHLYRQGEINLILNNEPNSIASYFAAEHGPSVCGMAFRVKDSQKAYNRALELGAQPIHIDTGPMELNLPAIKGIGGAPLYLIDRFGEGSSIYDIDFVYLEGVERNPVGAGLKVIDHLTHNVYRGRMVYWANFYEKLFNFREARYFDIKGEYTGLTSKAMSAPDGMIRIPLNEESSKGAGQIEEFLMQFNGEGIQHVAFLTDDLVKTWDALKKIGMRFMTAPADSYYEMLEGRLPDHGEPVDQLQARGILLDGSSVEGDKRLLLQIFSERLMGPVFFEFIQRKGDDGFGPHSFKVLFESMERDQVRRGVLTAD = 0.327
